Test Description: melting temperature; fluorescence melt of hairpins on a sequencing array, two-state fit, raised by 9.35 °C to match UV melts
Cond: sodium 0.088 M
Recorded Metric: Tm (°C)
Number only, in °C; omit the unit.

Answered cases to consult:
{"columns": ["Sequence Chain", "Value Units", "Tm"],
 "data": [
  ["GAAAACGAAAGTTTTTTC ((((((....)))..)))", "°C", 38.9],
  ["GATCCATACATGGATC ((((((....))))))", "°C", 55.8],
  ["GCCGCTGGAAACAGCGAC (.(((((....))))).)", "°C", 52.6],
  ["GTATTCGGAAACGAATGC (.(((((....))))).)", "°C", 48.6],
  ["GGTACCGAAAGGTGACC ((((((....))).)))", "°C", 48.4]
]}

Entry under review: GCATACGAAAGTATTGC ((((((....))).))) . Reported Tm?
45.7

Entry under review: GAACACGAAAGTGTTTC ((((((....))).))) . Reported Tm?
52.9

Entry under review: GACGGCGAAAGCCTGGTC ((((((....)))..))) . Reported Tm?
49.9

Entry under review: AATGCGAAAGCATT (((((....))))) . Reported Tm?
64.9

Entry under review: CGATTCGGAAACGACTCG (((.(((....))).))) . Reported Tm?
42.6

---

Test Description: melting temperature; fluorescence melt of hairpins on a sequencing array, two-state fit, raised by 9.35 °C to match UV melts
Cond: sodium 0.088 M
Tag: 1.0 if measured Tm is not below 60 °C, 0.0 if it is.

A selection of reference data follows.
{"columns": ["Sequence Chain", "Label Value"],
 "data": [
  ["GCAATGCGAAAGCACCGC ((..(((....)))..))", 0.0],
  ["GGTAGGGGAAACCTTACC ((((.((....)).))))", 0.0],
  ["GCGAACACGAAAGTGCGC (((..(((....))))))", 0.0]
]}

Say whether GATCTCTATTGAGATC ((((((....)))))) shows Tm of 60 °C or more.
0.0

Say whether GCGTCCTACGC ((((...)))) shows Tm of 60 °C or more.
1.0

---

Test Description: melting temperature; fluorescence melt of hairpins on a sequencing array, two-state fit, raised by 9.35 °C to match UV melts
Cond: sodium 0.088 M
Binned Tm; ranges: lowest (below 40 °C), middle (40 °C to below 50 °C), highest (50 °C or more)

{"columns": ["Sequence Chain", "Label Value"],
 "data": [
  ["GCGGATGGAAACACCCGC ((((.((....)).))))", "highest"],
  ["AAAACGAAAGTTTT (((((....)))))", "middle"],
  ["GGCCTACGAAAGTACGCC (((.(((....))).)))", "middle"],
  ["GTAGCCGAAAGGCTTTAC ((((((....)))..)))", "lowest"]
]}

Class label required: GCAACGGGAAACCGTTAC (.(((((....))))).)
lowest

Class label required: GTTATCCGAAAGGAAAC (((.(((....))))))
lowest

Class label required: GTACGCCGAAAGGCTAC (((.(((....))))))
middle

Class label required: GATCACTTATGTGATC ((((((....))))))
highest

Class label required: GAGCGACCGAAAGGTCTC (((..(((....))))))
lowest

Class label required: CGTACGAAAGTACG (((((....)))))
highest

Class label required: GATTGTGGAAACACAACC (.(((((....))))).)
lowest

Class label required: GCTAACGGAAACGTTGGC ((.((((....)))).))
highest

Class label required: GATCCCTGTTGGGATC ((((((....))))))
highest

Class label required: GCCATGCGAAAGCAGGC (((.(((....))))))
highest

Class label required: GGAGCCGCGAAAGCGTCC (((..(((....))))))
lowest

Class label required: GAGATACGAAAGTAACTC (((.(((....))).)))
middle

Class label required: GCGATCGGAAACAATCGC (((((.(....).)))))
middle

Class label required: GTGCGAGGAAACCCACAC (((.(.(....).).)))
lowest

---

Test Description: folding enthalpy; higher = less favourable; fluorescence melt of hairpins on a sequencing array, two-state fit
Cond: sodium 0.088 M
Readings of folding enthalpy for the listed sequences
Number only, in kcal/mol; omit the unit.

Answered cases to consult:
{"columns": ["Sequence Chain", "Endpoint Value"],
 "data": [
  ["GCGACGCGAAAGCCTGGC ((.(.((....)).).))", -5.89],
  ["GCCTTTGGAAACGAAGGC (((((.(....).)))))", -35.4],
  ["GTAAGACGAAAGTCCTAC (((.(((....))).)))", -15.7],
  ["GTTGTCGAAAGACAAAAC ((((((....)))..)))", -13.6],
  ["GCTTCCGAAAGGATAAGC ((((((....)))..)))", -22.8]
]}

Kindly review the next sequence as well.
Entry under review: GCACGGCGAAAGCCCGGC ((..(((....)))..)) . Reported folding enthalpy?
-15.4

---

Test Description: folding enthalpy; higher = less favourable; fluorescence melt of hairpins on a sequencing array, two-state fit
Cond: sodium 0.088 M
Readings of folding enthalpy for the listed sequences
Number only, in kJ/mol; omit the unit.

{"columns": ["Sequence Chain", "Value Units", "folding enthalpy"],
 "data": [
  ["GCGTATTAACGC ((((....))))", "kJ/mol", -92.4],
  ["GCTTCCGAAAGGACCAGC ((((((....)))..)))", "kJ/mol", -59.3]
]}

Entry under review: GAGACCGAAAGGTAGCTC ((((((....)))..))) . Reported folding enthalpy?
-77.5

Entry under review: GTGCAGAAATGCAC (((((....))))) . Reported folding enthalpy?
-107

Entry under review: GATCCTCACCAGGATC ((((((....)))))) . Reported folding enthalpy?
-162

Entry under review: GCTACCGAAAGGTAGAGC ((((((....)))..))) . Reported folding enthalpy?
-79.8

Entry under review: GTGCGAGGAAACCCACAC (((.(.(....).).))) . Reported folding enthalpy?
-43.4

Entry under review: GACGGTGGAAACATCGTC ((((.((....)).)))) . Reported folding enthalpy?
-182

Entry under review: GCACAGCGAAAGCCGTGC ((((.((....)).)))) . Reported folding enthalpy?
-102

Entry under review: GAGTACGGAAACGTACCC (.(((((....))))).) . Reported folding enthalpy?
-65

Entry under review: GCAATGCGAAAGCACCGC ((..(((....)))..)) . Reported folding enthalpy?
-41.3

Entry under review: GACAACGAAAGTTAGGTC ((((((....)))..))) . Reported folding enthalpy?
-60.9

---

Test Description: folding enthalpy; higher = less favourable; fluorescence melt of hairpins on a sequencing array, two-state fit
Cond: sodium 0.088 M
Tag: Satisfied if measured folding enthalpy is not below -20 kcal/mol, Not satisfied if it is.

A selection of reference data follows.
{"columns": ["Sequence Chain", "Label Value"],
 "data": [
  ["GCCTCCGAAAGGACGGGC ((((((....)))..)))", "Not satisfied"],
  ["GGCTTACGAAAGTATGCC (((.(((....))).)))", "Not satisfied"],
  ["GCTTTGGGAAACTAAAGC (((((.(....).)))))", "Not satisfied"],
  ["GGTTACGAAAGTATCACC ((((((....)))..)))", "Satisfied"],
  ["GACACTCCGAAAGGAGTC (((..(((....))))))", "Satisfied"]
]}

Say whether GTCTGCGAAAGCATGGAC ((((((....)))..))) shows folding enthalpy of -20 kcal/mol or more.
Satisfied

Say whether GTATTCCGAAAGGACTAC (((.(((....))).))) shows folding enthalpy of -20 kcal/mol or more.
Not satisfied

Say whether GTCACGGGAAACCGCGAC (((.(((....))).))) shows folding enthalpy of -20 kcal/mol or more.
Not satisfied

Say whether GTCGCTCCGAAAGGAGAC (((..(((....)))))) shows folding enthalpy of -20 kcal/mol or more.
Satisfied

Say whether GATTAAGGAAACTTAGTC ((.((((....)))).)) shows folding enthalpy of -20 kcal/mol or more.
Satisfied
